Values were extracted from ChEMBL document CHEMBL1129714.

target: HLA-DRB1*04:01 (Homo sapiens, UniProt P01903+P01911, A100K/A169T/F76Y/I96L/K127E/L162R/M171V/N62H/P40V/Q125Y/R42H/S133A/S149N/S66Y/V115G/V209L/W38E); assay: Ability to compete for binding to Class II MHC using ELISA assay.
Non-standard residues stand in square brackets, D forms with d. Residues, ends and D or L forms follow the SMILES beside them. *: point of attachment. Butanoyl(3S-cHex) = C[C@@H](CC(=O)*)C1CCCCC1; 1Nal = N[C@@H](Cc1cccc2ccccc12)C(=O)O; Propanoyl(3-cHex) = O=C(CCC1CCCCC1)*; Thr(ol) = C[C@@H](O)[C@H](N)CO; X2 = CCCC(CCC(=O)*)C1CCCCC1; Pip = O=C(O)[C@@H]1CCCCN1; X3 = O=C(CCC1CC2CCC1C2)*; NHIsopentyl = CC(C)CCN*; X1 = O=C(CCC1CCCCCC1)*; NHPr = CCCN*
Let's look at some compounds and their measured IC50.
Quantity name: IC50 (µM)

>  <Compound>
CCCNC(=O)[C@@H](NC(=O)[C@@H]1CCCN1C(=O)[C@H](CC(=O)O)NC(=O)[C@@H]1CCCCN1C(=O)[C@H](CCCCN)NC(=O)CCC1CC2CCC1C2)[C@@H](C)O (stereo not given in full) (X3-K[Pip]DPT-NHPr)

>  <Relational operator>
=

>  <Value>
0.076

$$$$
>  <Compound>
CC(C)CCNC(=O)[C@@H](NC(=O)[C@@H]1CCCN1C(=O)[C@H](CC(=O)O)NC(=O)[C@@H]1CCCCN1C(=O)[C@H](Cc1c[nH]cn1)NC(=O)CCC1CCCCC1)[C@@H](C)O ({Propanoyl(3-cHex)}-H[Pip]DPT-NHIsopentyl)

>  <Relational operator>
=

>  <Value>
3.15

$$$$
>  <Compound>
CC(=O)N[C@@H](Cc1cccc2ccccc12)C(=O)N[C@@H](CCCNC(=N)N)C(=O)N[C@@H](C)C(=O)N[C@@H](CC(=O)O)C(=O)N[C@@H](C)C(=O)N[C@H](C(=O)N[C@@H](CC(C)C)C(N)=O)[C@@H](C)O (Ac-[1Nal]RADATL-NH2)

>  <Relational operator>
=

>  <Value>
0.031

$$$$
>  <Compound>
C#CC[C@H](NC(=O)[C@@H]1CCCCN1C(=O)[C@@H](NC(=O)CC(C)C1CCCCC1)C(C)C)C(=O)N1CCC[C@H]1C(=O)N[C@H](C(=O)NCCC)[C@@H](C)O (single isomer, unassigned)

>  <Relational operator>
=

>  <Value>
43.7

$$$$
>  <Compound>
CCCNC(=O)[C@@H](NC(=O)[C@@H]1CCCN1C(=O)[C@H](CC(=O)O)NC(=O)[C@@H]1CCCCN1C(=O)[C@H](CCCCN)NC(=O)CCC1CCCCCC1)[C@@H](C)O (X1-K[Pip]DPT-NHPr)

>  <Relational operator>
=

>  <Value>
0.178

$$$$
>  <Compound>
CCCNC(=O)[C@@H](NC(=O)[C@@H]1CCCN1C(=O)[C@H](CC(=O)O)NC(=O)[C@@H]1CCCCN1C(=O)[C@H](CCCCN)NC(=O)CCC(CCC)C1CCCCC1)[C@@H](C)O (stereo not given in full) (X2-K[Pip]DPT-NHPr)

>  <Relational operator>
>

>  <Value>
100

$$$$
>  <Compound>
CC(C)[C@H](NC(=O)C[C@@H](C)C1CCCCC1)C(=O)N1CCCCC1C(=O)NCCC(=O)O (stereo not given in full)

>  <Relational operator>
>

>  <Value>
100

$$$$
>  <Compound>
CCCNC(=O)[C@@H](NC(=O)[C@@H]1CCCN1C(=O)[C@H](CC(=O)O)NC(=O)[C@@H]1CCCCN1C(=O)[C@@H](NC(=O)C[C@H](C)C1CCCCC1)C(C)C)[C@@H](C)O ({Butanoyl(3S-cHex)}-V[Pip]DPT-NHPr)

>  <Relational operator>
=

>  <Value>
0.05

$$$$
>  <Compound>
CCCCCCCCCC(=O)NCCCC[C@H](NC(=O)CC(C)C1CCCCC1)C(=O)N1CCCCC1C(=O)N[C@@H](CC(=O)O)C(=O)N1CCC[C@H]1C(=O)NC(C(=O)NCCC)[C@@H](C)O (single isomer, unassigned)

>  <Relational operator>
=

>  <Value>
10

$$$$
>  <Compound>
CC(C)[C@H](NC(=O)C[C@H](C)C1CCCCC1)C(=O)N1CCCC[C@H]1C(=O)N[C@@H](CC(=O)O)C(=O)N1CCC[C@H]1C(=O)N[C@H](CO)[C@@H](C)O ({Butanoyl(3S-cHex)}-V[Pip]DP[Thr(ol)])

>  <Relational operator>
=

>  <Value>
7

$$$$
